FYI, the data here is from ChEMBL document CHEMBL4145696.

Experiment: Half life in rat liver microsomes in presence of NADPH regeneration system
QUANTITY_MEASURED: t1/2

{"MOLECULE": "COc1cc(C(=O)c2c[nH]c(-c3c[nH]c4ccccc34)n2)cc2c1OCCO2", "OBSERVED": "54 min"}
{"MOLECULE": "O=C(c1ccc2c(c1)OCCO2)c1c[nH]c(-c2c[nH]c3ccccc23)n1", "OBSERVED": "51 min"}
{"MOLECULE": "O=C(c1ccc2c(c1)OCO2)c1c[nH]c(-c2c[nH]c3ccccc23)n1", "OBSERVED": "153 min"}
{"MOLECULE": "COc1cc(C(=O)c2c[nH]c(-c3c[nH]c4ccccc34)n2)cc2c1OC=CO2", "OBSERVED": "214 min"}
{"MOLECULE": "COc1cc(C(=O)c2c[nH]c(-c3c[nH]c4ccccc34)n2)cc2c1OCO2", "OBSERVED": "10.8 min"}
